Target sequence: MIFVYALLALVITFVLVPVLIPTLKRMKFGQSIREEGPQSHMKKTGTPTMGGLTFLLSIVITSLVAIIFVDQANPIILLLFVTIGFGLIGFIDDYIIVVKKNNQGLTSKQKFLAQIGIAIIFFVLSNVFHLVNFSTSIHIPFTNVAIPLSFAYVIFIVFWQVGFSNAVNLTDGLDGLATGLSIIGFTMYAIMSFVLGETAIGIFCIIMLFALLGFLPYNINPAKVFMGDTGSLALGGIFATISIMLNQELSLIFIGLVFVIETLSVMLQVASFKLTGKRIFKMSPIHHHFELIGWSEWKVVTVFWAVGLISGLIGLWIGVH
Lab note: compare IC50 with 1000 nM, writing 1 if less and 0 if equal or more.

Example cases with answers are listed next.
Cpd smiles	Label value
NC[C@H]1O[C@@H](O[C@@H](C#Cc2ccccc2C(=O)O)[C@H]2O[C@@H](n3ccc(=O)[nH]c3=O)[C@H](O)[C@@H]2O)[C@H](O)[C@@H]1O	0
NC[C@H]1O[C@@H](O[C@@H](CCc2ccccc2)[C@H]2O[C@@H](n3ccc(=O)[nH]c3=O)[C@H](O)[C@@H]2O)[C@H](O)[C@@H]1O	0
NC[C@H]1O[C@@H](O[C@@H](C#Cc2ccc(C(=O)O)cc2)[C@H]2O[C@@H](n3ccc(=O)[nH]c3=O)[C@H](O)[C@@H]2O)[C@H](O)[C@@H]1O	0
NC[C@H]1O[C@@H](O[C@@H](C#Cc2ccc(NC(=O)c3ccccc3)cc2)[C@H]2O[C@@H](n3ccc(=O)[nH]c3=O)[C@H](O)[C@@H]2O)[C@H](O)[C@@H]1O	0
NC[C@H]1O[C@@H](O[C@@H](C#Cc2cccc(C(=O)O)c2)[C@H]2O[C@@H](n3ccc(=O)[nH]c3=O)[C@H](O)[C@@H]2O)[C@H](O)[C@@H]1O	0
NC[C@H]1O[C@@H](O[C@@H](C#Cc2cccc(NS(=O)(=O)c3ccccc3)c2)[C@H]2O[C@@H](n3ccc(=O)[nH]c3=O)[C@H](O)[C@@H]2O)[C@H](O)[C@@H]1O	1

# input Answer whether the compound `NC[C@H]1O[C@@H](O[C@@H](C#Cc2cccc(C(=O)Nc3ccccc3)c2)[C@H]2O[C@@H](n3ccc(=O)[nH]c3=O)[C@H](O)[C@@H]2O)[C@H](O)[C@@H]1O` has IC50 strictly less than 1000 nM
# output 0

# input Answer whether the compound `Cc1ccccc1C#C[C@H](O[C@@H]1O[C@H](CN)[C@@H](O)[C@H]1O)[C@H]1O[C@@H](n2ccc(=O)[nH]c2=O)[C@H](O)[C@@H]1O` has IC50 strictly less than 1000 nM
# output 0

# input Answer whether the compound `NC[C@H]1O[C@@H](O[C@@H](C#Cc2cccc(-c3ccccc3)c2)[C@H]2O[C@@H](n3ccc(=O)[nH]c3=O)[C@H](O)[C@@H]2O)[C@H](O)[C@@H]1O` has IC50 strictly less than 1000 nM
# output 1

----------
biological target: Phospho-N-acetylmuramoyl-pentapeptide-transferase (Bacillus subtilis (strain 168), UniProt Q03521); experiment: Inhibition of Bacillus subtilis MraY
Sequence (Q03521 whole entry): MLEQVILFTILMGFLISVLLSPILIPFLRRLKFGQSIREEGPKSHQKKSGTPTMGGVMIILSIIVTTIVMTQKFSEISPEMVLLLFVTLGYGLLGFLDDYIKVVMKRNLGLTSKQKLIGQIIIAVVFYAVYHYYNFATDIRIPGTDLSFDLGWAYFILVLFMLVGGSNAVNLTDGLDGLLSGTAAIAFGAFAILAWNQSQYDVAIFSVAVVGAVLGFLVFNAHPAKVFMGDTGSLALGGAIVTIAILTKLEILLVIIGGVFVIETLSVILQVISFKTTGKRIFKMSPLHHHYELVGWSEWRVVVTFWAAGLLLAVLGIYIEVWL
Quantity measured: IC50 (µM)
Field format: number, assumed µM, no unit text.

Reported IC50 of `NC[C@H]1O[C@@H](O[C@@H](c2cn(Cc3ccc(Cc4ccc(C(=O)c5ccccc5)cc4)cc3)nn2)[C@H]2O[C@@H](n3ccc(=O)[nH]c3=O)[C@H](O)[C@@H]2O)[C@H](O)[C@@H]1O` : 50

Ref: ChEMBL document CHEMBL5260855
